Would you kindly list selectivity ratio for each of these molecules?
Test: Selectivity index, ratio of CTD50 for MDCK cells to ED50 for Influenza A virus (A/Puerto Rico/8/34(H1N1))
Assay type: toxicity
Conditions: dog, read-out: Selectivity Index
Response field accepts a number only; no unit should be typed.

Would you kindly share the measured selectivity ratio for CC(N)C12CC3CC(CC(C3)C1)C2 (stereo not given) ?
5

What do we get for NC12CC3CC(CC(C3)C1)C2 ?
4

What do we get for CC1(C)[C@@H]2CC[C@@]1(C)/C(=N\CCOCc1cn(CC/N=C3\C[C@H]4CC[C@]3(C)C4(C)C)nn1)C2 ?
1

What do we get for CCOC(=O)C(C)(Cc1cn(CC/N=C2\C[C@H]3CC[C@]2(C)C3(C)C)nn1)P(=O)(OCC)OCC (stereo not given in full) ?
2

What do we get for CCCCc1cn(CC/N=C2\C[C@H]3CC[C@]2(C)C3(C)C)nn1 ?
5

What do we get for C#CCOCC/N=C1\C[C@H]2CC[C@]1(C)C2(C)C ?
2

What do we get for COCCNCCc1cn(CC/N=C2\C[C@H]3CC[C@]2(C)C3(C)C)nn1 ?
34

What do we get for CC(N)[C@@H]1C[C@H]2CC[C@]1(C)C2 (stereo not given in full) ?
6

What do we get for CCOP(=O)(OCC)C(Cc1cn(CC/N=C2\C[C@H]3CC[C@]2(C)C3(C)C)nn1)P(=O)(OCC)OCC ?
2

What do we get for CC1(C)[C@@H]2CC[C@@]1(C)/C(=N/CCn1cc(CO)nn1)C2 ?
2

What do we get for CC1(C)[C@@H]2CC[C@@]1(C)/C(=N/CCOCc1cn(-c3ccccc3)nn1)C2 ?
2

What do we get for CC(C)(C)OC(=O)Cn1cc(COCC/N=C2\C[C@H]3CC[C@]2(C)C3(C)C)nn1 ?
8
